Biological target: T1, CD134 expressed on the cell surface of HT1080_OX40 cells (human, UniProt P43489 29-277); further: test concentration or dose not given here
T1 sequence (looked up): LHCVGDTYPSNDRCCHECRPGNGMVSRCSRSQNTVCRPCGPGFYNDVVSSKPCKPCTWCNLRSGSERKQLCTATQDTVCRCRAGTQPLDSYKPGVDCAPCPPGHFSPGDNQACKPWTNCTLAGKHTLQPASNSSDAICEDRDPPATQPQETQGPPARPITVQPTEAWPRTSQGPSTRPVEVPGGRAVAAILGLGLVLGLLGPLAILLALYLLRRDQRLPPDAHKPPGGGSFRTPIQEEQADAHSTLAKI
Test: cell-based or functional assay
measured-property: Functional assay Cross-linked by F(ab′)2 fragment IL-8 (abs. corr.)

| binder | unit-descriptor | experimental-value |
| --- | --- | --- |
| P018.S.04.A.B06 (antibody, V domains shown, V regions on human Ig constant parts; also called AB134_7) VH: QSVEESGGRLVTPGTFLTLTCTVSGFSLSSYAMNWVRQSPGKGLEWIGIIYSDDIAYYASWAKGRFTISKTSTTVTLKMTSLTVADTATYFCARGDGDRSIWSFDLWGPGTLVTVSS VL: AQVLTQTPSPVSAAVGGTVTISCQSSESVWNNNWLAWYQQKPGQPPNLLIYEASTLASGVSSRFKGSGSGTQFTLTVSEVQSDDAATYYCQGGYYDSSPIWTFGGGTEVVVK | abs. corr. | 2.27 |
| P018.S.12.A.H03 (antibody, V domains shown, V regions on human Ig constant parts; also called AB134_89) VH: QSLEESRGGLVQPEGSLTLTCKASGFSFSSGYYMCWVRQAPGKGLEWIGCIYSGSDSACYASWAKGRFTISKTSSTTVTLQMTSLTVADTATYFCVRDLGDYNALSYTINLWGPGTLVTVSS VL: DVVMTQTPSSVSAAVGGTVTIKCQASQSISTNLAWYQEKAGQPPKLLIYRASTVASGVPSRFKGSGSGTQFTLTISDLESADATTYFCQCIDYDDYGGTFGGGTEVVVK | abs. corr. | 1.27 |
